- ASSAY_REMARKS: Drug level in Sprague-Dawley rat at 5 mg/kg, iv measured after 24 hrs post dose by LC-MS/MS analysis
- Assay type: ADME, organism-based
- RUN_CONDITIONS: in vivo, read-out: Drug uptake
TEST_READOUT: concentration at 24 h (ng/mL)
Answers are plain numbers, in ng/mL.

Per the records, this compound ( CN(C)CCN(C)c1ccc(C#N)c(CN2CCN(c3ccc(Cl)cc3)CC2)c1 ) has concentration at 24 h equal to 77

====

- ASSAY_REMARKS: Selectivity index, ratio of CC50 for cytotoxicity in human Huh7.5 cells assessed as reduction in cell viability incubated for 96 hrs by MTT assay to EC50 for antiviral activity against HCV J6/JFH/JC1 infected in human Huh7.5 cells incubated for 72 hrs by In-Cell Western assay
- Assay type: toxicity, cell-based
- RUN_CONDITIONS: read-out: Ratio CC50/EC50
TEST_READOUT: selectivity ratio
Answers are plain numbers.

For each listed entry, give its selectivity ratio.
1. CCC(=O)N(C)CCN(C)c1ccc(C#N)c(CN2CCN(c3ccc(Cl)cc3)CC2)c1
2. CN(C)CCN(C)c1ccc(C#N)c(CN(C)c2ccc(Cl)cc2)c1
3. CN(C)CCN(C)c1ccc(C#N)c(CN2CCN(c3ccc(C#N)cc3)CC2)c1
4. CN(C)CCN(C)c1ccc(C#N)c(CN2CCN(c3ccc(Cl)cc3F)CC2)c1
5. CN(C)CCN(C)c1cccc(CN2CCN(c3ccc(Cl)cc3)CC2)c1
6. CN(C)CCN(C)c1ccc(C#N)c(CN2CCN(c3ccc(N)cc3)CC2)c1

OUTPUT:
5
30.6
4
64
14
8
